Sourced from patent US20260055102A1

- Tested target: Recombinant human DDR1 (aa440-876 containing a GST tag) (Homo sapiens (Human))
- Procedure text: LanthaScreen Eu Kinase Binding Assay DDR1
- Condition context: Kinase Tracer 178 5 nM, at least two independent replicates, read-out: DDR1 pIC50 (converted)

- Molecule: "Cc1cc(-n2c(=O)n(CC(=O)NCC(F)(F)F)c3cccc(C)c32)cnc1-c1cncc2[nH]nc(C)c12"
  Tested target: "Recombinant human DDR1 (aa440-876 containing a GST tag) (Homo sapiens (Human))"
  IC50: "100 to 1000 nM"
- Molecule: "Cc1cc(-c2cncc3c2cnn3C)cnc1-n1c(=O)n(CC(=O)N[C@H](C)C(F)(F)F)c2cccc(C)c21"
  Tested target: "Recombinant human DDR1 (aa440-876 containing a GST tag) (Homo sapiens (Human))"
  IC50: "100 to 1000 nM"
- Molecule: "Cn1ncc2c(-c3cc(F)c(-n4c(=O)n(CC(=O)NCC(F)(F)F)c5ccccc54)c(F)c3)cncc21"
  Tested target: "Recombinant human DDR1 (aa440-876 containing a GST tag) (Homo sapiens (Human))"
  IC50: "10 to 100 nM"
- Molecule: "Cc1cccc2c1n(-c1ccc(-c3cncc4c3cnn4C)nc1)c(=O)n2CC(=O)N1CCOC(C(F)(F)F)C1 (stereo in doubt)"
  Tested target: "Recombinant human DDR1 (aa440-876 containing a GST tag) (Homo sapiens (Human))"
  IC50: "< 10 nM"
- Molecule: "COc1cc(-c2cncc3c2cnn3C)ccc1-n1c(=O)n(CC(=O)NCC(F)(F)F)c2ccccc21"
  Tested target: "Recombinant human DDR1 (aa440-876 containing a GST tag) (Homo sapiens (Human))"
  IC50: "100 to 1000 nM"
- Molecule: "Cc1nc(-c2cncc3c2cnn3C)ccc1-n1c(=O)n(CC(=O)N[C@H](C)C(F)(F)F)c2cccc(C)c21"
  Tested target: "Recombinant human DDR1 (aa440-876 containing a GST tag) (Homo sapiens (Human))"
  IC50: "10 to 100 nM"
- Molecule: "CN(C)c1cccc2c1n(-c1ccc(-c3cncc4c3cnn4C)cc1)c(=O)n2CC(=O)NCC(F)(F)F"
  Tested target: "Recombinant human DDR1 (aa440-876 containing a GST tag) (Homo sapiens (Human))"
  IC50: "10 to 100 nM"

====

- Tested target: Recombinant human DDR2 (aa427-855 containing a GST tag) (Homo sapiens (Human))
- Procedure text: LanthaScreen Eu Kinase Binding Assay DDR2
- Condition context: Kinase Tracer 178 10 nM, at least two independent replicates, read-out: DDR2 pIC50 (converted)

- Molecule smiles: "Cn1ncc2c(-c3ccc(-n4c(=O)n(CC(=O)NCC(F)(F)F)c5cccc(Cl)c54)cc3)cncc21"
  IC50: "0.01 to 0.1 µM"
- Molecule smiles: "Cc1cccc2c1n(-c1ncc(-c3cncc4[nH]ncc34)cn1)c(=O)n2CC(=O)N[C@@H](C)C(F)(F)F"
  IC50: "0.1 to 1 µM"
- Molecule smiles: "Cc1cccc2c1n(-c1ccc(-c3cncc4[nH]ncc34)cn1)c(=O)n2CC(=O)N1CCO[C@@H](C(F)(F)F)C1"
  IC50: "0.1 to 1 µM"
- Molecule smiles: "Cc1cccc2c1n(-c1ccc(-c3cncc4c3cnn4C)cc1)c(=O)n2CC(=O)NCC(F)(F)F"
  IC50: "0.01 to 0.1 µM"

====

- Tested target: Recombinant human DDR2 (aa427-855 containing a GST tag) (Homo sapiens (Human), UniProt Q16832)
- Sequence (Q16832 427-855): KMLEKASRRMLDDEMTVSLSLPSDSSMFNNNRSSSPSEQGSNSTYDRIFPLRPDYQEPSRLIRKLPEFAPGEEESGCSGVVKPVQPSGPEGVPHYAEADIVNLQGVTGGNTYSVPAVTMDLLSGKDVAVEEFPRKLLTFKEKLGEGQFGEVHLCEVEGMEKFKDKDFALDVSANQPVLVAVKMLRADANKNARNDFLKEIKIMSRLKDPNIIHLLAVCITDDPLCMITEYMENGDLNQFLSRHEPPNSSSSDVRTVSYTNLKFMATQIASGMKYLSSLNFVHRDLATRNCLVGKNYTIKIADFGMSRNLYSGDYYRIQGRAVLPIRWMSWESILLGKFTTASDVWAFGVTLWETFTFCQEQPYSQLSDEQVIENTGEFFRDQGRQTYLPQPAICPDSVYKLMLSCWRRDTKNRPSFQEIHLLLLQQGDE
- Procedure text: LanthaScreen Eu Kinase Binding Assay DDR2
- Condition context: Kinase Tracer 178 10 nM, at least two independent replicates, read-out: DDR2 pIC50 (converted)
Catalogue of IC50 readings, one per entry.
Readout kind: IC50

- Compound: "Cn1ncc2c(-c3ccc(-n4c(=O)n(CC(=O)N5CCC[C@H]5C(F)(F)F)c5ccccc54)cn3)cncc21 [Example 65]"
  Readout kind: "IC50"
  Result: "0.1 to 1 µM"
- Compound: "Cc1cccc2c1n(-c1ccc(-c3cncc4c3cnn4C)nc1)c(=O)n2CC(=O)N1CCC[C@H]1C(F)(F)F [Example 56]"
  Readout kind: "IC50"
  Result: "0.01 to 0.1 µM"
- Compound: "Cc1cc(-c2cncc3c2cnn3C)ccc1-n1c(=O)n(CC(=O)NCC(F)(F)F)c2cccc(C)c21 [Example 16]"
  Readout kind: "IC50"
  Result: "0.1 to 1 µM"
- Compound: "Cc1cc(-c2cncc3c2cnn3C)ccc1-n1c(=O)n(CC(=O)N[C@@H](C)C(F)(F)F)c2cccc(Cl)c21 [Example 84]"
  Readout kind: "IC50"
  Result: "0.01 to 0.1 µM"
- Compound: "Cc1cccc2c1n(-c1ccc(-c3cncc4c3cnn4C)cn1)c(=O)n2CC(=O)NCC(F)(F)F [Example 58]"
  Readout kind: "IC50"
  Result: "0.1 to 1 µM"
- Compound: "Cc1cccc2c1n(-c1ccc(-c3cncc4c3cnn4C)cc1)c(=O)n2CC(=O)N1CCOC(C(F)(F)F)C1 (stereo not drawn) [Example 9]"
  Readout kind: "IC50"
  Result: "0.01 to 0.1 µM"
- Compound: "Cc1cccc2c1n(-c1ccc(-c3cncc4c3cnn4C)nc1)c(=O)n2CC(=O)N[C@@H](C)C(F)(F)F [Example 52]"
  Readout kind: "IC50"
  Result: "0.01 to 0.1 µM"
- Compound: "Cc1cccc2c1n(-c1ccc(-c3cncc4c3cnn4C)nc1)c(=O)n2CC(=O)N1CCOC[C@H]1C(F)(F)F [Example 53]"
  Readout kind: "IC50"
  Result: "0.01 to 0.1 µM"
- Compound: "Cc1cccc2c1n(-c1ccc(-c3cncc4c3cnn4C)cn1)c(=O)n2CC(=O)N1CCO[C@@H](C(F)(F)F)C1 [Example 60]"
  Readout kind: "IC50"
  Result: "0.1 to 1 µM"
- Compound: "Cc1cccc2c1n(-c1cnc(-c3cncc4c3cnn4C)cn1)c(=O)n2CC(=O)NCC(F)(F)F [Example 47]"
  Readout kind: "IC50"
  Result: "0.1 to 1 µM"
- Compound: "Cc1cc(-c2cncc3c2cnn3C)ccc1-n1c(=O)n(CC(=O)N[C@@H](C)C(F)(F)F)c2cccc(C)c21 [Example 82]"
  Readout kind: "IC50"
  Result: "0.01 to 0.1 µM"
- Compound: "Cc1cc(-c2cncc3[nH]ncc23)ncc1-n1c(=O)n(CC(=O)NCC(F)(F)F)c2cccc(C)c21 [Example 93]"
  Readout kind: "IC50"
  Result: "0.1 to 1 µM"
- Compound: "Cn1ncc2c(-c3ccc(-n4c(=O)n(CC(=O)N5CCCC[C@H]5C(F)(F)F)c5ccccc54)cc3)cncc21 [Example 32]"
  Readout kind: "IC50"
  Result: "0.1 to 1 µM"
- Compound: "Cc1nc(-c2cncc3[nH]ncc23)ccc1-n1c(=O)n(CC(=O)NCC(F)(F)F)c2cccc(C)c21 [Example 94]"
  Readout kind: "IC50"
  Result: "0.01 to 0.1 µM"
- Compound: "Cc1nc(-c2cncc3c2cnn3C)ccc1-n1c(=O)n(CC(=O)NCC(F)(F)F)c2cccc(C)c21 [Example 95]"
  Readout kind: "IC50"
  Result: "0.1 to 1 µM"
- Compound: "Cc1cccc2c1n(-c1ccc(-c3cncc4c3cnn4C)nn1)c(=O)n2CC(=O)NCC(F)(F)F [Example 67]"
  Readout kind: "IC50"
  Result: "0.1 to 1 µM"
- Compound: "Cc1nc(-c2cncc3c2cnn3C)ccc1-n1c(=O)n(CC(=O)N[C@@H](C)C(F)(F)F)c2cccc(C)c21 [Example 113]"
  Readout kind: "IC50"
  Result: "0.1 to 1 µM"
- Compound: "C[C@@H](CC(F)(F)F)NC(=O)Cn1c(=O)n(-c2ccc(-c3cncc4c3cnn4C)cc2)c2ccccc21 [Example 62]"
  Readout kind: "IC50"
  Result: "0.1 to 1 µM"
- Compound: "Cc1cccc2c1n(-c1ccc(-c3cncc4c3cnn4C)cc1)c(=O)n2CC(=O)N1CCO[C@H](C(F)(F)F)C1 [Example 42]"
  Readout kind: "IC50"
  Result: "0.01 to 0.1 µM"
- Compound: "Cc1cc(-c2cncc3c2cnn3C)ncc1-n1c(=O)n(CC(=O)N[C@@H](C)C(F)(F)F)c2cccc(C)c21 [Example 106]"
  Readout kind: "IC50"
  Result: "0.1 to 1 µM"
- Compound: "Cc1cccc2c1n(-c1ccc(-c3cncc4c3cnn4C)cn1)c(=O)n2CC(=O)N1CCO[C@H](C(F)(F)F)C1 [Example 61]"
  Readout kind: "IC50"
  Result: "0.1 to 1 µM"

====

- Tested target: Recombinant human DDR1 (aa440-876 containing a GST tag) (Homo sapiens (Human), UniProt Q08345)
- Sequence (Q08345 other isoform, or with tags, fused parts or gaps): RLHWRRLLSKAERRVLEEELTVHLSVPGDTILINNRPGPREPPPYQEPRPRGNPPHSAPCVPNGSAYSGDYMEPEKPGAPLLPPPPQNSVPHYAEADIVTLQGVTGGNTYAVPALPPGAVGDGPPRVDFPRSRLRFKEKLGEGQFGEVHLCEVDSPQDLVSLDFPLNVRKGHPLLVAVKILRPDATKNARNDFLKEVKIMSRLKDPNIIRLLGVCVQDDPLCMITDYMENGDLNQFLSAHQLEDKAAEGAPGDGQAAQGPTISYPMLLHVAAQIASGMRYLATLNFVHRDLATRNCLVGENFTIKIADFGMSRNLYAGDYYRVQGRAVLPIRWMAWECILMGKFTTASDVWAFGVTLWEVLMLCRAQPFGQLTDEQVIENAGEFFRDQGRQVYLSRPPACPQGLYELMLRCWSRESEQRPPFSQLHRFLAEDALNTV
- Procedure text: LanthaScreen Eu Kinase Binding Assay DDR1
- Condition context: Kinase Tracer 178 5 nM, at least two independent replicates
Readout kind: DDR1 pIC50

- Molecule: "Cn1ncc2c(-c3ccc(-n4c(=O)n(CC(=O)NCC(F)(F)F)c5ccccc54)c(Cl)c3)cncc21"
  Result: "A (pIC50>8)"
- Molecule: "Cc1cccc2c1n(-c1ccc(-c3cncc4c3cnn4C)cc1)c(=O)n2CC(=O)N1CCO[C@@H](C(F)(F)F)C1"
  Result: "A (pIC50>8)"
- Molecule: "Cc1cc(-c2cncc3c2cnn3C)ccc1-n1c(=O)n(CC(=O)N[C@@H](C)C(F)(F)F)c2cccc(Cl)c21"
  Result: "A (pIC50>8)"
- Molecule: "Cn1ncc2c(-c3ccc(-n4c(=O)n(CC(=O)N5CCOC(C(F)(F)F)C5)c5ccccc54)cc3)cncc21 (stereo not drawn)"
  Result: "A (pIC50>8)"
- Molecule: "Cc1cccc2c1n(-c1cnc(-c3cncc4c3cnn4C)cn1)c(=O)n2CC(=O)NCC(F)(F)F"
  Result: "A (pIC50>8)"
- Molecule: "Cc1cc(-c2cncc3[nH]ncc23)ncc1-n1c(=O)n(CC(=O)NCC(F)(F)F)c2cccc(C)c21"
  Result: "A (pIC50>8)"
- Molecule: "Cc1nc(-c2cncc3c2cnn3C)cnc1-n1c(=O)n(CC(=O)NCC(F)(F)F)c2cccc(C)c21"
  Result: "A (pIC50>8)"
- Molecule: "Cn1ncc2c(-c3ccc(-n4c(=O)n(CC(=O)N5CCCC(C(F)(F)F)C5)c5ccccc54)cc3)cncc21 (stereo not drawn)"
  Result: "A (pIC50>8)"
- Molecule: "Cn1ncc2c(-c3ccc(-n4c(=O)n(CC(=O)N5CCOCC5)c5ccccc54)cc3)cncc21"
  Result: "D (pIC50≤6)"
- Molecule: "Cc1cccc2c1n(-c1cnc(-c3cncc4c3cnn4C)cn1)c(=O)n2CC(=O)N[C@@H](C)C(F)(F)F"
  Result: "A (pIC50>8)"
- Molecule: "Cc1cccc2c1n(-c1ccc(-c3cncc4c3cnn4C)cn1)c(=O)n2CC(=O)N1CCC[C@H]1C(F)(F)F"
  Result: "A (pIC50>8)"
- Molecule: "Cc1nc(-c2cncc3c2cnn3C)ccc1-n1c(=O)n(CC(=O)NCC(F)(F)F)c2cccc(C)c21"
  Result: "A (pIC50>8)"
- Molecule: "Cc1cccc2c1n(-c1ccc(-c3cncc4c3cnn4C)nc1)c(=O)n2CC(=O)N[C@@H](C)C(F)(F)F"
  Result: "A (pIC50>8)"
- Molecule: "Cn1ncc2c(-c3ccc(-n4c(=O)n(CC(=O)N5CCC[C@@H](C(F)(F)F)C5)c5ccccc54)cc3)cncc21"
  Result: "A (pIC50>8)"
- Molecule: "Cc1cccc2c1n(-c1ccc(-c3cncc4[nH]ncc34)cn1)c(=O)n2CC(=O)N1CCO[C@H](C(F)(F)F)C1"
  Result: "A (pIC50>8)"
- Molecule: "Cn1ncc2c(-c3ccc(-n4c(=O)n(CC(=O)N5CCCC5C(F)(F)F)c5ccccc54)cc3)cncc21 (stereo not drawn)"
  Result: "A (pIC50>8)"
- Molecule: "Cc1nc(-c2cncc3[nH]nc(C)c23)cnc1-n1c(=O)n(CC(=O)NCC(F)(F)F)c2cccc(C)c21"
  Result: "D (pIC50≤6)"
- Molecule: "Cc1cc(-c2cncc3c2cnn3C)ccc1-n1c(=O)n(CC(=O)N[C@@H](C)C(F)(F)F)c2cccc(C)c21"
  Result: "A (pIC50>8)"
- Molecule: "Cc1ncc2c(cnn2C)c1-c1ccc(-n2c(=O)n(CC(=O)NCC(F)(F)F)c3cccc(C)c32)cn1"
  Result: "D (pIC50≤6)"
- Molecule: "Cc1cccc2c1n(-c1ccc(-c3cncc4c3cnn4C)cc1)c(=O)n2CC(=O)N[C@@H](C)C(F)(F)F"
  Result: "A (pIC50>8)"
